Run description: ATG_MRE_CIS: Attagene CIS-FACTORIAL HepG2 Assay for human Metal Responsive Element (MRE) (AID 2282954)
Stated conditions: HepG2 MRE cis-reporter transcription, Attagene multiplex; actives raise or lower the signal
Activity calls are given as the source filed them. The calls were made as follows: active = hit-call score of the fitted dose curve at least 0.9, where 1 is the maximum; inactive = score below 0.9.
Classes used: true (1) = active, false (0) = inactive

- Chemical smiles: "Cc1ccc(O)cn1"
  Classification: "false (0)"
- Chemical smiles: "CCc1ccc(C)nc1"
  Classification: "false (0)"
- Chemical smiles: "CC(=O)C=O"
  Classification: "false (0)"
- Chemical smiles: "O=C(c1ccccc1)c1ccc(Cl)cc1"
  Classification: "true (1)"
- Chemical smiles: "CSc1ccc(Cl)cc1"
  Classification: "false (0)"
- Chemical smiles: "CC1=CCC(=O)O1"
  Classification: "false (0)"
- Chemical smiles: "CCCCCCCCCCCCCCCCC"
  Classification: "false (0)"
- Chemical smiles: "Cc1ccc(O)c(-n2nc3ccccc3n2)c1"
  Classification: "false (0)"
- Chemical smiles: "CCN(CC)c1ccc(C=O)cc1"
  Classification: "false (0)"
- Chemical smiles: "CC(C)(C)c1cc(Cc2cc(C(C)(C)C)c(O)c(C(C)(C)C)c2)cc(C(C)(C)C)c1O"
  Classification: "false (0)"
- Chemical smiles: "CC(C)(C)c1cc(CCC(=O)NCCCCCCNC(=O)CCc2cc(C(C)(C)C)c(O)c(C(C)(C)C)c2)cc(C(C)(C)C)c1O"
  Classification: "false (0)"
- Chemical smiles: "CC(=O)c1ccccc1N"
  Classification: "false (0)"
- Chemical smiles: "CCC/C=C/CO"
  Classification: "false (0)"
- Chemical smiles: "CO[Si](C)(CCC(F)(F)C(F)(F)C(F)(F)C(F)(F)C(F)(F)C(F)(F)F)OC"
  Classification: "false (0)"

----------
Run description: TOX21_p53_BLA_p4_viability: Viability Assessment in the Tox21 HCT-116 p53 Agonism Beta-lactamase Assay, Phase 4 (AID 2283597);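 also: hits lower the luminescence signal meaning cytotoxicity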
Text: TOX21_p53_BLA_p4 is a cell-based, single-readout assay that uses HCT116, a human intestinal cell line, […] in a 1536-well plate.TOX21_p53_BLA_p4_viability is an assay readout measuring cellular ATP content and detected with CellTiter-Glo Luciferase-coupled ATP quantitation.TOX21_p53_BLA_p4_viability used a type of viability reporter where loss-of-signal activity can be used to understand changes in the cell viability. […]
Inconclusive results are not listed. Calls of active or inactive are those of the source. How the source made its calls: active means hit-call score of the fitted dose curve at least 0.9, where 1 is the maximum; inconclusive means response in the unintended direction; inactive means score below 0.9.

- Compound: "CN(N=O)C(=O)N[C@@H]1[C@@H](O)[C@H](O)[C@@H](CO)O[C@@H]1O"
  AC50: "inactive"
- Compound: "O=C1C=CC(=O)N1c1ccc(Cc2ccc(N3C(=O)C=CC3=O)cc2)cc1"
  AC50: "75.2 µM (active)"
- Compound: "O=C1C=CC(=O)N1c1ccccc1"
  AC50: "84.5 µM (active)"
- Compound: "CC(O)C#CC(C)O (centres undefined)"
  AC50: "inactive"
- Compound: "Cc1cc(O)c(C(C)(C)C)cc1C(C)(C)C"
  AC50: "30.9 µM (active)"
- Compound: "CC(C)CC=C(C=O)c1ccccc1"
  AC50: "inactive"
- Compound: "CCCCOC(=O)C(C)O (centres undefined)"
  AC50: "inactive"
- Compound: "C=CCOC(=O)CC(C)C"
  AC50: "inactive"
- Compound: "Cc1cc(=O)[nH]c(C(C)C)n1"
  AC50: "inactive"
- Compound: "CO[Si](CCCOCC1CO1)(OC)OC (centres undefined)"
  AC50: "inactive"
- Compound: "C[C@]12CC[C@H]3C(=CCc4cc(O)ccc43)[C@@H]1CCC2=O"
  AC50: "15.8 µM (active)"
- Compound: "OCC1CCCO1 (centres undefined)"
  AC50: "inactive"
- Compound: "CCCCCCCC/C=C\\CCCCCCCC(=O)N(C)CC(=O)O"
  AC50: "83.3 µM (active)"
- Compound: "CC(=O)CCC(C)C"
  AC50: "inactive"

----------
Run description: ATG_ISRE_CIS: Attagene CIS-FACTORIAL HepG2 Assay for human Interferon Regulatory Factor 1 (IRF1) binding to an Interferon-Stimulated Response Element (ISRE) (AID 2282948)
Stated conditions: HepG2 ISRE cis-reporter (Attagene), mRNA transcription readout; actives raise or lower the signal
Protocol: ATG_CIS is a cell-based, multiplexed-readout assay that uses HepG2, a human liver cell line, with measurements taken at 24 hours after chemical dosing in a 24-well plate.ATG_ISRE_CIS is one of 52 assay component(s) measured or calculated from the ATG_CIS assay. […] This assay endpoint, ATG_ISRE_CIS, was analyzed with bidirectional fitting relative to DMSO as the negative control and baseline of activity. […]
Activity calls are given as the source filed them. Rule for the calls: active = hit-call score of the fitted dose curve at least 0.9, where 1 is the maximum; inactive = score below 0.9.
Outcomes: 1 (active), -1 (inactive)

- Molecule: "OCCCCC(F)(F)C(F)(F)C(F)(F)C(F)(F)F"
  Classification: -1
- Molecule: "C[Si](Cl)(Cl)CCC(F)(F)C(F)(F)C(F)(F)C(F)(F)C(F)(F)C(F)(F)F"
  Classification: -1
- Molecule: "CCOC(OCC)OCC"
  Classification: -1
- Molecule: "Cc1cc(O)c(C(C)(C)C)cc1C(C)(C)C"
  Classification: 1
- Molecule: "CCC/C=C/CO"
  Classification: -1
- Molecule: "OCC(O)CC(F)(F)C(F)(F)C(F)(F)C(F)(F)F (stereo not drawn)"
  Classification: -1
- Molecule: "CCOC(=O)CCC(C)=O"
  Classification: -1
- Molecule: "O=C(O)C(F)(F)C(F)(F)C(F)(F)C(F)(F)C(F)(F)C(F)(F)C(F)F"
  Classification: -1
- Molecule: "NC(O)(C(F)(F)F)C(F)(F)F"
  Classification: -1
- Molecule: "FC(F)(F)C(F)(F)C(F)(F)C(F)(F)C(F)(F)C(F)(F)C(F)(F)CCI"
  Classification: -1
- Molecule: "NCC(F)(F)C(F)(F)C(F)(F)C(F)(F)C(F)(F)C(F)(F)C(F)(F)C(F)(F)F"
  Classification: -1
- Molecule: "O=S(=O)(Cl)C(F)(F)C(F)(F)C(F)(F)C(F)(F)C(F)(F)C(F)(F)C(F)(F)C(F)(F)F"
  Classification: -1
- Molecule: "Cc1cnccn1"
  Classification: -1
- Molecule: "CCCCC(CC)COC(=O)c1ccc(N(C)C)cc1 (stereo not drawn)"
  Classification: -1
- Molecule: "OC(O)C(F)(F)C(F)(F)F"
  Classification: 1
- Molecule: "CCCCCCCCCCCC(=O)Cl"
  Classification: -1
- Molecule: "CC(C)(C)c1cc(Cc2cc(C(C)(C)C)c(O)c(C(C)(C)C)c2)cc(C(C)(C)C)c1O"
  Classification: -1
- Molecule: "O=C1C=CC(=O)N1c1ccc(Cc2ccc(N3C(=O)C=CC3=O)cc2)cc1"
  Classification: -1
- Molecule: "COc1ccccc1C=O"
  Classification: -1
- Molecule: "CCN(CC)c1ccc(C=O)cc1"
  Classification: -1
- Molecule: "OCCCCl"
  Classification: -1
- Molecule: "Cc1cc(C)c(O)c(C(C)(C)C)c1"
  Classification: -1
- Molecule: "C=C(C)C(=O)OCC(F)(F)C(F)(F)C(F)(F)C(F)F"
  Classification: -1
- Molecule: "CCC(C)CO (stereo not drawn)"
  Classification: -1
- Molecule: "C=CC(=O)OCC(F)(F)C(F)(F)C(F)(F)COC(=O)C=C"
  Classification: 1
- Molecule: "Cc1ccc(O)c(-n2nc3ccccc3n2)c1"
  Classification: -1
- Molecule: "CSc1ccc(O)cc1C"
  Classification: -1
- Molecule: "CC(=O)C=O"
  Classification: -1

----------
Study system: Bile acid receptor (Homo sapiens)
Run description: ATG_FXR_TRANS: Attagene TRANS-FACTORIAL HepG2 Assay for Farnesoid X Receptor (FXR) (AID 2282979);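 also: hits raise reporter mRNA above DMSO so AC50 marks FXR activation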
Stated conditions: HepG2 Attagene TRANS FXR-GAL4 reporter transcription
Inconclusive results are not listed. Calls of active or inactive are those of the source. How the source made its calls: active means hit-call score of the fitted dose curve at least 0.9, where 1 is the maximum; inconclusive means response in the unintended direction; inactive means score below 0.9.
Quantity: outcome

- Chemical smiles: "C=CCOC(=O)CC(C)C"
  Result: "inactive"
- Chemical smiles: "C[Si](Cl)(Cl)CCC(F)(F)C(F)(F)C(F)(F)C(F)(F)C(F)(F)C(F)(F)F"
  Result: "inactive"
- Chemical smiles: "CCCC(=O)OCC(COC(=O)CCC)OC(=O)CCC"
  Result: "inactive"
- Chemical smiles: "CNS(=O)(=O)C(F)(F)C(F)(F)C(F)(F)C(F)(F)C(F)(F)C(F)(F)C(F)(F)C(F)(F)F"
  Result: "inactive"
- Chemical smiles: "O=C(O)C(F)(F)OC(F)(F)C(F)(F)OC(F)(F)C(F)(F)OC(F)(F)F"
  Result: "inactive"
